Biological target: Arginase-2, mitochondrial (Homo sapiens) (UniProt P78540)
Sequence (whole entry): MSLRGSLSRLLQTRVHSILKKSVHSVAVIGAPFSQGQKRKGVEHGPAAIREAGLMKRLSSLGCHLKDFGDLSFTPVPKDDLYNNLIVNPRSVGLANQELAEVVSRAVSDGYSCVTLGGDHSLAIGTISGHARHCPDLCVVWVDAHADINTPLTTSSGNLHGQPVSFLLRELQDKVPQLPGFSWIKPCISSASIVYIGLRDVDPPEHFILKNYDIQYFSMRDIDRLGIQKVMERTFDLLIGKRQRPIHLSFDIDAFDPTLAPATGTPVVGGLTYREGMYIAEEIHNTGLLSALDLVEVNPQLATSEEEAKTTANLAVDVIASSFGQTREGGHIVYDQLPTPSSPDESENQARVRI
Test: in vitro enzyme assay to detect the production of urea directly proportional to the activity of Arginase II; also: in the data most compounds retested in dose-response had high values
Type: functional
Design: scale not given: direction of the effect not stated beside the values
Settings: 33.3 µM
Collected Percent Effect values appear next to each entry.
measured_parameter: Percent Effect (%)

[[record]]
compound = "CC(NC(=O)NCC1(O)CCC1)c1ccc(OCC2CC2)c(F)c1 (stereo unspecified)"
measured_number = -24.9

[[record]]
compound = "COC[C@@]12CCO[C@@H]1CCN(Cc1ccccc1F)C2"
measured_number = -2.79

[[record]]
compound = "Cc1csc(NC(=O)CN(C)CC2CCCN2c2cccnn2)n1 (stereo unspecified)"
measured_number = 5.42

[[record]]
compound = "CN1CCOC(CN(C(=O)Cc2ccccc2F)c2nccs2)C1 (stereo unspecified)"
measured_number = -2.03

[[record]]
compound = "COc1ccc(-n2cnnc2SCCC#N)cn1"
measured_number = 18.2

[[record]]
compound = "CCC1=N[C@@]2(CC[C@@H]3CN(Cc4ccc(Cl)cc4)C[C@@H]32)C(=O)N1"
measured_number = -0.955

[[record]]
compound = "CC(C)CCN1CN=C(NS(=O)(=O)c2ccc(F)cc2)NC1"
measured_number = -9.33

[[record]]
compound = "O=C(Nc1nc2c(s1)CN(S(=O)(=O)C1CC1)CC2)c1c(F)cccc1F"
measured_number = 2.27

[[record]]
compound = "O=C(Cc1cccs1)NC1CCN(c2cccc(F)c2)CC1"
measured_number = 7.27

[[record]]
compound = "COc1cccc(CCC(=O)N2CCCCC2Cn2cccn2)c1 (stereo unspecified)"
measured_number = 1.9

[[record]]
compound = "Cc1nc(CN2C(=O)CCC23CCN(c2ncccn2)CC3)cs1"
measured_number = -54.7


---

Organism: Homo sapiens
Test: To identify inhibition of the IFN signalling (Jak-Stat) pathway via expression of an eGFP reporter gene under the control of an IFN-stimulated response element (ISRE) containing MxA promoter.
Type: functional
Set-up: scale not given: direction of the effect not stated beside the values
Conditions: 30 µM
Decide using Percent Effect alone. Strictly below 10%: fulfilled. Equal to or above 10%: not fulfilled.

[[record]]
compound = "c1ccc(-n2cc(CN3CCCC(Cn4cncn4)C3)nn2)cc1 (configuration not stated)"
classification = "not fulfilled"

[[record]]
compound = "Cc1cc(C)cc(OCCC(=O)N2CCCC(n3cncn3)C2)c1 (configuration not stated)"
classification = "fulfilled"

[[record]]
compound = "CNC(=O)c1cnc(/C=C/c2cc(OC)c(OC)c(OC)c2)s1"
classification = "not fulfilled"

[[record]]
compound = "COc1c(C)cnc(CSc2nnc(C)s2)c1C"
classification = "fulfilled"

[[record]]
compound = "CCCN1CCC(NC(=O)c2ccc(F)cc2I)CC1"
classification = "fulfilled"

[[record]]
compound = "Clc1ccc(OCCN2CCN(CCn3cncn3)CC2)cc1"
classification = "not fulfilled"

[[record]]
compound = "CCCC1CCCN(Cc2csc(-c3cnn(C)c3)n2)CC1 (configuration not stated)"
classification = "not fulfilled"

[[record]]
compound = "COc1ccc(CN2CC[C@H](NC(C)=O)[C@@H](O)CC2)c(OC)c1"
classification = "not fulfilled"

[[record]]
compound = "CC1CN(C(=O)CN(Cc2ccccc2Br)C2CC2)CCO1 (configuration not stated)"
classification = "not fulfilled"

[[record]]
compound = "Cc1cnn(C2CCCN(C(=O)c3cccc(Cn4ccnc4)c3)C2)c1 (configuration not stated)"
classification = "not fulfilled"

[[record]]
compound = "Cc1ccc(N2CCCN(C(=O)CC3CCCO3)CC2)nn1 (configuration not stated)"
classification = "fulfilled"

[[record]]
compound = "Cc1cc(C)n(C2CN(CC(=O)NC3CCOCC3)C2)n1"
classification = "not fulfilled"


---

Target: Tyrosyl-tRNA synthetase, putative (Trypanosoma cruzi (strain CL Brener)) (UniProt Q4DSP6)
Sequence (Q4DSP6 as listed by the source): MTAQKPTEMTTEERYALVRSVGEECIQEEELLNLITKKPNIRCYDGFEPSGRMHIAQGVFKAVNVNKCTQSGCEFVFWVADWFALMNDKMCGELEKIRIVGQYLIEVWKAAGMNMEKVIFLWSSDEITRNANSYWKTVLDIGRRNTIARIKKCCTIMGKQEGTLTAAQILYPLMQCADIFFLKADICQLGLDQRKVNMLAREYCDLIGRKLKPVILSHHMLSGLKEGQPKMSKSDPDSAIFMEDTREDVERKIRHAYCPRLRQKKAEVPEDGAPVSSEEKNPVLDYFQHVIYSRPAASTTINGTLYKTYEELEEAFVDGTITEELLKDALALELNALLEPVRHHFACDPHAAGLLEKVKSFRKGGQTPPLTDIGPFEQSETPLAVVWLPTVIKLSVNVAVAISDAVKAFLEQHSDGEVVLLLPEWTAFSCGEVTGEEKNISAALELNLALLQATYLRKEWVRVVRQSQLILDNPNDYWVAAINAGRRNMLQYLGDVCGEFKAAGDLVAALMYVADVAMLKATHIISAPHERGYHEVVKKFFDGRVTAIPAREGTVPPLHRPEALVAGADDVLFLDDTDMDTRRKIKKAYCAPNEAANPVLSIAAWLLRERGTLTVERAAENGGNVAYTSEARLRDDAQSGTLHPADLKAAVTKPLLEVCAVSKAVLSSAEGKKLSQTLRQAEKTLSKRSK
Assay: Trypanosoma cruzi tyrosyl tRNA synthetase (TcYRS) SOP
Type: functional
Set-up: scale not given: direction of the effect not stated beside the values
Details: 30 µM
Collected Percent Effect values appear next to each entry.
measured_parameter: Percent Effect (%)

[[record]]
compound = "Cn1cccc1C(=O)N1CC[C@H]2C[C@@H](c3ccncn3)O[C@@H]2C1"
measured_number = 5.13

[[record]]
compound = "c1cnc2c(c1)cc([C@H]1CCCO1)n2CCN1CCCCC1"
measured_number = 3.9

[[record]]
compound = "CCN(Cc1nc2c(cnn2C)c(=O)[nH]1)c1ccc(OC)c(OC)c1"
measured_number = 20.2

[[record]]
compound = "CCc1nc(CN2CCCN(c3nccs3)CC2)no1"
measured_number = 9.76

[[record]]
compound = "CC(C)NC(=O)[C@@H]1CCO[C@@H]2CCN(c3ncccn3)C[C@H]21"
measured_number = 10

[[record]]
compound = "Cc1nc(CN2C[C@@H]3CN(C(=O)c4ccnnc4)C[C@@H]3C2=O)cs1"
measured_number = 7.69

[[record]]
compound = "CC(C)c1noc(C(C)N2CCN(Cc3ccco3)CC2)n1 (stereo unspecified)"
measured_number = 1.24

[[record]]
compound = "O=C(Nc1ccccn1)C1=NN(c2ccccc2)C(=O)CN1"
measured_number = 24.1

[[record]]
compound = "COc1cccc(N2CCN(CC(O)c3ccc(C)cc3)CC2)c1 (stereo unspecified)"
measured_number = 20.8

[[record]]
compound = "CC(C)c1cc2c(O)nc(CSCC(=O)O)nc2s1"
measured_number = 10.3

[[record]]
compound = "COc1cc2nc3n(c(=O)c2cc1OC)CCN(C(C)=O)CC3"
measured_number = 11.7


---

Collected Percent Effect values appear next to each entry.
Molecular target: Arginase-2, mitochondrial (Homo sapiens)
Test: in vitro enzyme assay to detect the production of urea directly proportional to the activity of Arginase II; also: in the data most compounds retested in dose-response had high values
Assay type: functional
Set-up: scale not given: direction of the effect not stated beside the values
Conditions: 33.3 µM
measured_parameter: Percent Effect (%)

[[record]]
molecule = "O=C(c1cn(-c2ccccc2Cl)nn1)N1CCCSCC1"
subject_of_test = "Arginase-2, mitochondrial (Homo sapiens)"
measured_parameter = "Percent Effect"
units_text = "%"
measured_number = 3.72

[[record]]
molecule = "Cc1occc1C(=O)N1CCC[C@]2(C[C@@H](OCc3ccncc3)CO2)C1"
subject_of_test = "Arginase-2, mitochondrial (Homo sapiens)"
measured_parameter = "Percent Effect"
units_text = "%"
measured_number = -23.5

[[record]]
molecule = "O=C(c1csc(-c2cccs2)n1)N1CCCC1Cn1cccn1 (centres undefined)"
subject_of_test = "Arginase-2, mitochondrial (Homo sapiens)"
measured_parameter = "Percent Effect"
units_text = "%"
measured_number = 1.08

[[record]]
molecule = "O=C(C1CCCC1)N1CCN(Cc2nc(-c3ccco3)no2)CC1"
subject_of_test = "Arginase-2, mitochondrial (Homo sapiens)"
measured_parameter = "Percent Effect"
units_text = "%"
measured_number = -1.29

[[record]]
molecule = "O=C(CCC1CCCC1)N1CCC(c2ncc3c(n2)CCNC3)CC1"
subject_of_test = "Arginase-2, mitochondrial (Homo sapiens)"
measured_parameter = "Percent Effect"
units_text = "%"
measured_number = -6.26

[[record]]
molecule = "Cc1cnn(CC2CCCCN2C(=O)c2ccc3[nH]nnc3c2)c1 (centres undefined)"
subject_of_test = "Arginase-2, mitochondrial (Homo sapiens)"
measured_parameter = "Percent Effect"
units_text = "%"
measured_number = 2.32

[[record]]
molecule = "Cc1ncsc1CN1C[C@H](C(=O)N2CCCO2)[C@@H]2CCO[C@@H]2C1"
subject_of_test = "Arginase-2, mitochondrial (Homo sapiens)"
measured_parameter = "Percent Effect"
units_text = "%"
measured_number = -7.58

[[record]]
molecule = "CCOc1ncccc1CNC(=O)N1CCCC1c1cc(C)no1 (centres undefined)"
subject_of_test = "Arginase-2, mitochondrial (Homo sapiens)"
measured_parameter = "Percent Effect"
units_text = "%"
measured_number = 0.521

[[record]]
molecule = "O=C(NCC1CC1)[C@@H]1CCO[C@@H]2CCN(Cc3ccco3)C[C@H]21"
subject_of_test = "Arginase-2, mitochondrial (Homo sapiens)"
measured_parameter = "Percent Effect"
units_text = "%"
measured_number = -55.7

[[record]]
molecule = "CNc1nc2c(s1)C(c1cccc(F)c1F)CC(=O)N2 (centres undefined)"
subject_of_test = "Arginase-2, mitochondrial (Homo sapiens)"
measured_parameter = "Percent Effect"
units_text = "%"
measured_number = 4.73

[[record]]
molecule = "CC(C)OCC(=O)N1CCCN(Cc2ccc(C#N)cc2)CC1"
subject_of_test = "Arginase-2, mitochondrial (Homo sapiens)"
measured_parameter = "Percent Effect"
units_text = "%"
measured_number = 2.68

[[record]]
molecule = "CCn1cc2c(n1)CN(Cc1ccoc1)CC2COCC1CC1 (centres undefined)"
subject_of_test = "Arginase-2, mitochondrial (Homo sapiens)"
measured_parameter = "Percent Effect"
units_text = "%"
measured_number = -1.67

[[record]]
molecule = "O=C(NCCN1CCOCC1)c1n[nH]c(=O)c2ccccc12"
subject_of_test = "Arginase-2, mitochondrial (Homo sapiens)"
measured_parameter = "Percent Effect"
units_text = "%"
measured_number = -3.56

[[record]]
molecule = "CCS(=O)(=O)CC(=O)NC(c1ccccc1)C1CCCCC1 (centres undefined)"
subject_of_test = "Arginase-2, mitochondrial (Homo sapiens)"
measured_parameter = "Percent Effect"
units_text = "%"
measured_number = -17.8

[[record]]
molecule = "O=C1CC2(CCN(CC3CC3)C2)CN1c1cccc(F)c1 (centres undefined)"
subject_of_test = "Arginase-2, mitochondrial (Homo sapiens)"
measured_parameter = "Percent Effect"
units_text = "%"
measured_number = 1.24

[[record]]
molecule = "Cc1cc(-c2cnc(NC3CC3)nc2-c2ccc(C)o2)on1"
subject_of_test = "Arginase-2, mitochondrial (Homo sapiens)"
measured_parameter = "Percent Effect"
units_text = "%"
measured_number = -0.233

[[record]]
molecule = "Cc1cnn(CC2CCCN2C(=O)c2ccc3[nH]nnc3c2)c1 (centres undefined)"
subject_of_test = "Arginase-2, mitochondrial (Homo sapiens)"
measured_parameter = "Percent Effect"
units_text = "%"
measured_number = -2.8

[[record]]
molecule = "O=c1oc(-c2cccs2)nn1CC(O)c1ccccc1 (centres undefined)"
subject_of_test = "Arginase-2, mitochondrial (Homo sapiens)"
measured_parameter = "Percent Effect"
units_text = "%"
measured_number = -27.6

[[record]]
molecule = "O=C(Nc1cccnc1)N1CCC(n2ccc(C(F)(F)F)n2)CC1"
subject_of_test = "Arginase-2, mitochondrial (Homo sapiens)"
measured_parameter = "Percent Effect"
units_text = "%"
measured_number = -0.909

[[record]]
molecule = "COCCc1noc(CNC2CCc3nc(C(C)C)nn3C2)n1 (centres undefined)"
subject_of_test = "Arginase-2, mitochondrial (Homo sapiens)"
measured_parameter = "Percent Effect"
units_text = "%"
measured_number = -2.74

[[record]]
molecule = "Cc1nc(CN2CCCC(NCCOCC(F)(F)F)C2)no1 (centres undefined)"
subject_of_test = "Arginase-2, mitochondrial (Homo sapiens)"
measured_parameter = "Percent Effect"
units_text = "%"
measured_number = -1.52

[[record]]
molecule = "CC(C)Oc1cc(N2C[C@@H](C)O[C@@H](C)C2)nc(N)n1"
subject_of_test = "Arginase-2, mitochondrial (Homo sapiens)"
measured_parameter = "Percent Effect"
units_text = "%"
measured_number = -17.1

[[record]]
molecule = "Cn1cnc(S(=O)(=O)NCCCN2CCCCCC2)c1Cl"
subject_of_test = "Arginase-2, mitochondrial (Homo sapiens)"
measured_parameter = "Percent Effect"
units_text = "%"
measured_number = 1.6

[[record]]
molecule = "COc1cccc(CC(=O)N2CCc3ncnc(NC(C)C)c3CC2)c1"
subject_of_test = "Arginase-2, mitochondrial (Homo sapiens)"
measured_parameter = "Percent Effect"
units_text = "%"
measured_number = -0.319


Data credit: ChEMBL document CHEMBL3988442
